Here, each record is paired with measured growth data.
# System: HL-60(TB) leukemia
# method-description: NCI-60 one-dose screen, 48 h (100 = growth as untreated, 0 = no growth, -100 = all killed)
# condition: 10 µM unless noted
About 83,000 compounds went through this panel and 20% of them were active in at least one assay; those are over-represented in the sample as a whole.
The response must be a number in % with no trailing unit.

| compound | growth (%) |
| --- | --- |
| O=C1C(c2ccccc2)C2C=CC(C2)N1O (stereo unspecified) | 93 |
| CC(C)CCOc1ccc(-c2n[nH]c(C(F)(F)F)c2-c2cncc(C#N)c2)c(O)c1 | 3.64 |
| Cc1ccc(C)c2c1sc1nc(N3CCOCC3)c(C#N)c(=O)n12 | 93.4 |
| Nc1ccc(Sc2ccc([N+](=O)[O-])c3nonc23)cc1 | 42.8 |
| CCN(CC)CCSC(=O)C(O)(c1ccccc1)C1CCCC1 (stereo unspecified) | 94 |

Consider now this further compound.
(Q) growth for C=C1CC2(OC1=O)C(=O)N(C)c1ccc(I)cc12 (stereo unspecified) ?
(A) -56.5
